# TEST PROTOCOL: Lethality (LD50) in PND7 rat pups
# TEST CONTEXT: rat, in vivo, ip
MEASURED ATTRIBUTE: LD50 (mg/kg)
Supply the numeric figure in mg/kg, leaving out any unit text.

For this compound ( C[C@]12CC[C@H](O)C[C@H]1CC[C@@H]1[C@@H]2CC[C@]2(C)[C@@H](C#N)CC[C@@H]12 ), measured LD50 is 61.9
